Ref: ChEMBL document CHEMBL1140941

- SYSTEM TESTED: Mineralocorticoid receptor (Homo sapiens)
- Sequence (P08235 whole entry): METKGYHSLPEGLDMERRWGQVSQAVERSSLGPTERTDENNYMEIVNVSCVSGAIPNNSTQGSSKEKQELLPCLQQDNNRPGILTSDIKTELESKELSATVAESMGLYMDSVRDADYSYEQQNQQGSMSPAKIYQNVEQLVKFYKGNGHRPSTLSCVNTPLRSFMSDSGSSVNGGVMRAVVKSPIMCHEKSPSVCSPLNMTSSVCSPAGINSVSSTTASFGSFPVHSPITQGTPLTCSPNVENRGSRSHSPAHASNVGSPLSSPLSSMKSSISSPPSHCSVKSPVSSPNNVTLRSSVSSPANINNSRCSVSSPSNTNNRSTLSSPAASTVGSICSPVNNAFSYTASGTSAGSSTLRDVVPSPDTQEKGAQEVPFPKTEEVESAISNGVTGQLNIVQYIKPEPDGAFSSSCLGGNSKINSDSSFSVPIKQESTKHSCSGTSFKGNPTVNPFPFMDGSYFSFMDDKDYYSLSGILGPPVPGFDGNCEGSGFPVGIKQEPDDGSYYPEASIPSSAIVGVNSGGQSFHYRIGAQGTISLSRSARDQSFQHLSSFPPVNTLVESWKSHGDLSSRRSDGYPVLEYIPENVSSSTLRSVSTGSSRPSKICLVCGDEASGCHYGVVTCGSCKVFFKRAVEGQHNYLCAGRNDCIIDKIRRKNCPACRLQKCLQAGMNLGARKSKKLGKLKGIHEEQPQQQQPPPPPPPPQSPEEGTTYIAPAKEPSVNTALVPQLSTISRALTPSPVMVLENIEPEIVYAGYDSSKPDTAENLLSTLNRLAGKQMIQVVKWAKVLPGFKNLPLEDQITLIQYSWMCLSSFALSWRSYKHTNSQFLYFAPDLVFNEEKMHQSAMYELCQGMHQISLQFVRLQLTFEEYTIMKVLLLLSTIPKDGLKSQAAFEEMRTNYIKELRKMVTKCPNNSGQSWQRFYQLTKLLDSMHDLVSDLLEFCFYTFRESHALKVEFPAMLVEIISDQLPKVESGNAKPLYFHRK
- ASSAY INFO: Antagonist activity at gal-MR expressed in african green monkey CV1 cells co-expressing MH100 by luciferase reporter gene assay
pIC50: −log10 of the molar value.
READOUT LABEL: pIC50

molecule="CC(C)OC(=O)C1=CN(C(=O)c2ccc(F)c(F)c2)CC(C)(C)c2c1[nH]c1ccccc21 [TUROFEXORATE ISOPROPYL]" readout_label=pIC50 endpoint_result=5.00
